system: Cryptosporidium parvum; experiment: qRT-PCR assay of the growth of C. parvum in vitro in HCT-8 host cells (primary and secondary screening, EC50); type: cell-based; settings: primary screening at 10 uM

Compound	Inhibition (%)
COC(=O)/C(C)=C\C[C@@]12OC(C)(C)[C@@H]3C[C@@H](C=C4C(=O)c5c(OC)c6c(c(CC=C(C)C)c5O[C@]431)O[C@](C)(CCC=C(C)C)C=C6)C2=O [METHYL GAMBOGATE METHYL ETHER]	23.61
CNCC(=O)c1ccc(O)c(O)c1.Cl [ADRENOLONE HYDROCHLORIDE]	26.43
C[C@]12CCC(=O)C=C1CC[C@@H]1[C@@H]2C(=O)C[C@@]2(C)[C@H]1CC[C@]2(O)C(=O)CO	-10.93

// data source = paper PMC6736568
